Reference source for all entries: the supplement of paper PMC6555819

test system: LXRa homodimer (NR concentration 270 nM); test: PBM binding z-score (relative to random genomic background probes); higher = stronger binding; sequences stand for … in GC…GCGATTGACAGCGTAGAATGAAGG
assay readout: PBM binding z-score

| entry sequence | tested target | test value |
| --- | --- | --- |
| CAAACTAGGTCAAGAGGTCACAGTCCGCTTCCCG | LXRa homodimer (NR concentration 270 nM) | 4.4 |
| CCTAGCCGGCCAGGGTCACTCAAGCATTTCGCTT | LXRa homodimer (NR concentration 270 nM) | -0.316 |
| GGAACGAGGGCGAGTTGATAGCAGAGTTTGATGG | LXRa homodimer (NR concentration 270 nM) | -0.54 |
| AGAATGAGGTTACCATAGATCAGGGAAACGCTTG | LXRa homodimer (NR concentration 270 nM) | -0.421 |
| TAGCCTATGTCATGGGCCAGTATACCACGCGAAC | LXRa homodimer (NR concentration 270 nM) | -0.253 |
| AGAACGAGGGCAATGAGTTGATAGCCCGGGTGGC | LXRa homodimer (NR concentration 270 nM) | -0.355 |
| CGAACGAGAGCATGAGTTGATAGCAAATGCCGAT | LXRa homodimer (NR concentration 270 nM) | -0.103 |
| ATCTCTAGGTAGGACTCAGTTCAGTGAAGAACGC | LXRa homodimer (NR concentration 270 nM) | 0.659 |
| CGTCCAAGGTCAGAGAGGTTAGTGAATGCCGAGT | LXRa homodimer (NR concentration 270 nM) | 0.378 |
| CAAACTAGGTCACGAAAGGTCAAAGTCGAATGAC | LXRa homodimer (NR concentration 270 nM) | 7.89 |
| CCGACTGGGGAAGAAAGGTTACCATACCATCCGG | LXRa homodimer (NR concentration 270 nM) | -0.0766 |
| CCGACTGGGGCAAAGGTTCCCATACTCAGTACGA | LXRa homodimer (NR concentration 270 nM) | -0.431 |
| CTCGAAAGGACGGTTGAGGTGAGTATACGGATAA | LXRa homodimer (NR concentration 270 nM) | -0.439 |
| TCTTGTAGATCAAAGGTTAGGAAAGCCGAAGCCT | LXRa homodimer (NR concentration 270 nM) | -0.217 |
| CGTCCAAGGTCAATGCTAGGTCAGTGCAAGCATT | LXRa homodimer (NR concentration 270 nM) | 2.83 |
| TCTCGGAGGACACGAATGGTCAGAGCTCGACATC | LXRa homodimer (NR concentration 270 nM) | -0.468 |
| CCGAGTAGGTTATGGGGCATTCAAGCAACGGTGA | LXRa homodimer (NR concentration 270 nM) | -0.128 |
| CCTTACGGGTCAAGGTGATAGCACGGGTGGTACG | LXRa homodimer (NR concentration 270 nM) | -0.313 |
| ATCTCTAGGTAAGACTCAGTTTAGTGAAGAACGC | LXRa homodimer (NR concentration 270 nM) | 0.489 |
| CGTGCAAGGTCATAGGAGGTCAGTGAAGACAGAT | LXRa homodimer (NR concentration 270 nM) | 4.92 |
| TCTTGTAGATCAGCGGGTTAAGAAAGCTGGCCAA | LXRa homodimer (NR concentration 270 nM) | -0.31 |
| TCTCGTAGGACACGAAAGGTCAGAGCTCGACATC | LXRa homodimer (NR concentration 270 nM) | 2.58 |
| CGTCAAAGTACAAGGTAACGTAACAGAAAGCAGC | LXRa homodimer (NR concentration 270 nM) | -0.279 |
| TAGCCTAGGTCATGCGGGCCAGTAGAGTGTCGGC | LXRa homodimer (NR concentration 270 nM) | -0.00774 |
| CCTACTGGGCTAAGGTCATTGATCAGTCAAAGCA | LXRa homodimer (NR concentration 270 nM) | 1.87 |
| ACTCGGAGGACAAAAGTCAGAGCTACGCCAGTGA | LXRa homodimer (NR concentration 270 nM) | -0.424 |
| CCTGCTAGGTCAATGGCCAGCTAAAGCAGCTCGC | LXRa homodimer (NR concentration 270 nM) | -0.17 |
| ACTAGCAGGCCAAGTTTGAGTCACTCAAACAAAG | LXRa homodimer (NR concentration 270 nM) | -0.503 |
| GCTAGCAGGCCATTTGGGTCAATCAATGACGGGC | LXRa homodimer (NR concentration 270 nM) | -0.476 |
| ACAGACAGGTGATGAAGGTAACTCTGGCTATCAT | LXRa homodimer (NR concentration 270 nM) | -0.109 |
| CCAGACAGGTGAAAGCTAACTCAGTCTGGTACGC | LXRa homodimer (NR concentration 270 nM) | -0.559 |
| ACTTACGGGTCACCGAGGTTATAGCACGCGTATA | LXRa homodimer (NR concentration 270 nM) | 1.1 |
| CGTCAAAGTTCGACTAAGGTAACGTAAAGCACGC | LXRa homodimer (NR concentration 270 nM) | 0.0441 |
| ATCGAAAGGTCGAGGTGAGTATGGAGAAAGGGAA | LXRa homodimer (NR concentration 270 nM) | -0.073 |
| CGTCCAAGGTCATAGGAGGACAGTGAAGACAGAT | LXRa homodimer (NR concentration 270 nM) | 1.35 |
| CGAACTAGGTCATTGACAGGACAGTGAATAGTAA | LXRa homodimer (NR concentration 270 nM) | 0.461 |
| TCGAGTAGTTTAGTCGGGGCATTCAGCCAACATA | LXRa homodimer (NR concentration 270 nM) | -0.441 |
| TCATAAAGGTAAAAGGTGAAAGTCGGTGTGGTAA | LXRa homodimer (NR concentration 270 nM) | 0.231 |
| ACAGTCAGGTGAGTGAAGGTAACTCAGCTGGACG | LXRa homodimer (NR concentration 270 nM) | -0.578 |
| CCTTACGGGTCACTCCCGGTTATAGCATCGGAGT | LXRa homodimer (NR concentration 270 nM) | 2 |
| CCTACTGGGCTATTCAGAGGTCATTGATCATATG | LXRa homodimer (NR concentration 270 nM) | 7.28 |
| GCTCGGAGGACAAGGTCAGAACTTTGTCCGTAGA | LXRa homodimer (NR concentration 270 nM) | -0.253 |
| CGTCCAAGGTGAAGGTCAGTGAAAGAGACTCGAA | LXRa homodimer (NR concentration 270 nM) | -0.233 |
| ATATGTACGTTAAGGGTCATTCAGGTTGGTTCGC | LXRa homodimer (NR concentration 270 nM) | 2.57 |
| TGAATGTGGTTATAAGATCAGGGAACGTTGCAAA | LXRa homodimer (NR concentration 270 nM) | 0.268 |
| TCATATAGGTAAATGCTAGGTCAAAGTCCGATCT | LXRa homodimer (NR concentration 270 nM) | 5.26 |
| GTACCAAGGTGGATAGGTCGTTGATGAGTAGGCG | LXRa homodimer (NR concentration 270 nM) | -0.154 |
| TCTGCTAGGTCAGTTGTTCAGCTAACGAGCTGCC | LXRa homodimer (NR concentration 270 nM) | -0.424 |
| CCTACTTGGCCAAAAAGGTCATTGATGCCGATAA | LXRa homodimer (NR concentration 270 nM) | 3.93 |
| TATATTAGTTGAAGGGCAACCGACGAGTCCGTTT | LXRa homodimer (NR concentration 270 nM) | 0.861 |
| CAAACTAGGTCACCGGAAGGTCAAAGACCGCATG | LXRa homodimer (NR concentration 270 nM) | 4.14 |
